# assay comment: NCI Yeast Anticancer Drug Screen. Data for the mlh1 rad18 strain (AID 175)
# condition label: S. cerevisiae mlh1 rad18 strain growth inhibition; at 5.0 µM (retest, dose inferred, filed as 0.5)
Compounds without any hit were thinned out: in the full panel of roughly 79,000, 15% have a hit. Calls of active or inactive are those of the source. Cut-off read from the data, not from the text of the source: active = growth inhibition above about 70%; inactive = the rest.
Pick from 1 (yes) for active, 0 (no) for inactive when you respond.

Query block: # lookup: test call for O=C1C=CC(=O)N1c1cccc([N+](=O)[O-])c1
Result block: 1 (yes)

Query block: # lookup: test call for CC(C)(C)c1ccc(C(=O)C[n+]2ccc(Cl)c3ccc(Cl)cc32)cc1
Result block: 0 (no)

Query block: # lookup: test call for O=C1/C(=C/c2cccc(O)c2)COc2ccccc21
Result block: 1 (yes)

Query block: # lookup: test call for O=C1CN(/N=C\c2ccc([N+](=O)[O-])o2)C(=O)N1
Result block: 0 (no)

Query block: # lookup: test call for CN(C)c1ccc(/C=C(/NC(=O)c2ccccc2)c2nc3ccc(Cl)cc3[nH]2)cc1
Result block: 0 (no)

Query block: # lookup: test call for C[P+](c1ccccc1)(c1ccc(Cl)cc1)c1ccc(Cl)cc1
Result block: 0 (no)

Query block: # lookup: test call for COc1ccc2nc3cc(Cl)ccc3c(Nc3ccc(O)c(CN4CCN(C)CC4)c3)c2c1
Result block: 0 (no)

Query block: # lookup: test call for CC(C)c1ccc(C(C)C)c(O)c1O
Result block: 0 (no)

Query block: # lookup: test call for C=C1C(=O)O[C@H]2C3C(=C(C)CC[C@@H]12)C(=O)[C@@H]1OC31C (stereo partly specified)
Result block: 0 (no)

Query block: # lookup: test call for CCOc1ccc2nc3cc(Cl)ccc3[n+](C)c2c1
Result block: 0 (no)

Query block: # lookup: test call for COc1ccc(C2SC(N)=Nc3c2c(C)nn3C(=O)c2ccccc2O)cc1OC (stereo unspecified)
Result block: 0 (no)

====

# assay comment: NCI Yeast Anticancer Drug Screen. Data for the cln2 rad14 strain (AID 165);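 note: 0% = growth equal to vehicle treated cultures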
# condition label: S. cerevisiae cln2 rad14 strain, at 50.0 µM (retest, dose inferred, filed as 5.0)
About 79,000 compounds went through this panel and 15% of them were active in at least one assay; those are over-represented in the sample as a whole. Active and inactive are the calls of the source. Rule as the data show it: active = growth inhibition above about 70%; inactive = the rest.
Pick from yes (1) for active, no (0) for inactive when you respond.

Query block: # lookup: test call for CCCCCCCCCCSC(=NCC)NCC
Result block: yes (1)

Query block: # lookup: test call for c1ccc2c(c1)C[N+]1(CCCCCCC1)C2
Result block: no (0)

Query block: # lookup: test call for CCCCC(/C=N\NC(=O)c1ccc[n+](C)c1)=C/c1ccccc1
Result block: no (0)

Query block: # lookup: test call for O=C(O)CCSc1ncnc2nc[nH]c12
Result block: no (0)

Query block: # lookup: test call for CN(CN(C)N=Nc1ccc(Cl)cc1)CN(C)N=Nc1ccc(Cl)cc1
Result block: no (0)

Query block: # lookup: test call for O=[N+]([O-])c1c(O)cccc1O
Result block: yes (1)

Query block: # lookup: test call for Cc1ccc(S(=O)(=O)N/N=C/Cc2ccccc2)cc1
Result block: yes (1)

Query block: # lookup: test call for CC(C)(C)C1=NN=C2c3ccccc3C(=O)C21 (stereo not drawn)
Result block: no (0)

Query block: # lookup: test call for C=CCOC(=O)CCC(=O)N(CC)CC
Result block: no (0)

Query block: # lookup: test call for O=C(Cc1nc2ccc(Cl)cc2nc1CC(=O)c1ccccc1)c1ccccc1
Result block: yes (1)

Query block: # lookup: test call for CC(Br)C(=O)c1ccc2cc(Cl)c3ccccc3c2c1 (stereo not drawn)
Result block: yes (1)

Query block: # lookup: test call for C/C(=N/NC(N)=O)C1CC(CCC2([N+](=O)[O-])CCC(C)(O)C(/C(C)=N\NC(N)=O)C2)([N+](=O)[O-])CCC1(C)O (stereo not drawn)
Result block: no (0)

Query block: # lookup: test call for COc1cc(C(c2cc3c(cc2O)OCO3)N2CCN(C(c3ccc(O)c(OC)c3)c3cc4c(cc3O)OCO4)CC2)ccc1O (stereo not drawn)
Result block: yes (1)

Query block: # lookup: test call for O=C(O)c1ccc2ccccc2c1C(=O)c1cccc2ccccc12
Result block: no (0)

Query block: # lookup: test call for Nc1nnc2nc(C(C(=O)c3ccccc3Cl)c3nc4nnc(N)n4[nH]c3=O)c(=O)[nH]n12
Result block: no (0)

Query block: # lookup: test call for CC(C)NC(=O)CN1C(=O)NC(C)(c2ccccc2)C1=O (stereo not drawn)
Result block: no (0)

Query block: # lookup: test call for COc1ccccc1NC(=O)C1=C(C)NC(C)=C(C(=O)Nc2ccccc2OC)C1c1ccccc1[N+](=O)[O-]
Result block: no (0)

Query block: # lookup: test call for Nc1ccccc1Sc1ccccc1
Result block: no (0)

Query block: # lookup: test call for [O-]c1c(-c2cccc3ccccc23)sc(-c2cccc3ccccc23)[n+]1-c1ccccc1
Result block: yes (1)

Query block: # lookup: test call for CCOC(=O)C(=CCC1NCCc2c1[nH]c1ccccc21)C(=O)OCC (stereo not drawn)
Result block: no (0)

Query block: # lookup: test call for Cc1cc(N(CCCCl)CCCCl)ccc1C=Nc1cccc(Cl)c1
Result block: no (0)

Query block: # lookup: test call for O=C([O-])C[n+]1c(/C=C/c2ccccc2)ccc2ccccc21
Result block: yes (1)

Query block: # lookup: test call for Cc1cccc(C)c1NC(=O)CSC(N)=O
Result block: no (0)

These measurements were taken from PubChem BioAssay (NCI).
